Tested on: ex vivo porcine jejunum
method-description: Ussing chamber permeation across ex vivo porcine jejunum
Format: in vitro ADME, pig
experimental-context: statistical comparison, α = 0.05; inhibitors as E19
value-kind: change of Papp,pig in the presence of the corresponding inhibitor

| smiles-notation | measured-target | endpoint-result |
| --- | --- | --- |
| CC(C)c1nc(N(C)S(C)(=O)=O)nc(-c2ccc(F)cc2)c1/C=C/[C@@H](O)C[C@@H](O)CC(=O)O | ex vivo porcine jejunum | significantly increased |
| C[C@H]1O[C@@H](O[C@H]2[C@@H](O)C[C@H](O[C@H]3[C@@H](O)C[C@H](O[C@H]4CC[C@@]5(C)[C@H](CC[C@@H]6[C@@H]5C[C@@H](O)[C@]5(C)[C@@H](C7=CC(=O)OC7)CC[C@]65O)C4)O[C@@H]3C)O[C@@H]2C)C[C@H](O)[C@@H]1O | ex vivo porcine jejunum | significantly increased |
